Target: VEGFR3 cytoplasmic domain (Homo sapiens, UniProt P35916)
Construct: VEGFR3 cytoplasmic domain (amino acids 798-1298) was purchased as N-terminal GST-fusion protein; GST (N); purchased
Sequence (P35916 798-1298 isoform P35916-1): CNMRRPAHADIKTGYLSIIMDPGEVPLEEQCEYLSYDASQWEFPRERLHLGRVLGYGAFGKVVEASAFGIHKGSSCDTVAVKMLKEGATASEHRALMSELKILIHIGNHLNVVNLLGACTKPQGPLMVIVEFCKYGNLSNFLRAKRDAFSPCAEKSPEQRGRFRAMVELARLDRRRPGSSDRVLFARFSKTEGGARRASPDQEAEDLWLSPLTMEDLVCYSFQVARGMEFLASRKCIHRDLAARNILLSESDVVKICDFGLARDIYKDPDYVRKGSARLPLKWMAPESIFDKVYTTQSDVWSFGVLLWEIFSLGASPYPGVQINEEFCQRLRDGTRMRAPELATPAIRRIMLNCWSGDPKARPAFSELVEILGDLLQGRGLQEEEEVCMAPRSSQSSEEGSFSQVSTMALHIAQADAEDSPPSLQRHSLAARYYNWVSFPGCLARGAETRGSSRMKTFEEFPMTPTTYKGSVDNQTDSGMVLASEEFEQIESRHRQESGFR
Experiment: VEGFR3 biochemical assay (AlphaScreen)
Settings: GST-VEGFR3 cytoplasmic domain, 500 μM ATP (modified form: His-fusion, 1 μM ATP)
Attribute: IC50
readoutType: IC50 (nM)

INSERT INTO results (compound, valuemeasured) VALUES
  ('Cc1ccc(CC(N)=O)c(CCc2nc(Nc3ccc(C4CCNCC4)cc3)ncc2C(F)(F)F)c1', 44),
  ('CC(N)c1ccc(Nc2ncc(C(F)(F)F)c(CCc3ccccc3CC(N)=O)n2)cc1 (centres unmarked)', 46),
  ('Cc1cnc(Nc2ccc(C3CCNCC3)nc2)nc1CCc1ccccc1CC(N)=O', 35),
  ('CN1CCC(c2ccc(Nc3ncc(C(F)(F)F)c(CCc4ccccc4CC(N)=O)n3)cc2F)CC1', 34),
  ('Cc1cnc(Nc2cnn(C)c2)nc1CCc1ccccc1CC(N)=O', 24),
  ('Cc1cnc(Nc2ccc(C3CCN(C)CC3)nc2)nc1CCc1ccccc1CC(N)=O', 28),
  ('NC(=O)Cc1c(CCc2nc(Nc3ccc(C4CCNCC4)cc3)ncc2C(F)(F)F)cccc1C(F)(F)F', 101),
  ('CC(=O)NC(C)c1cccc(Nc2ncc(Cl)c(CCc3ccccc3CC(N)=O)n2)c1 (centres unmarked)', 10);

----------
Target: P397Y-FAK (Homo sapiens)
Construct: endogenous in cells; host or cells: MDA-231-LNA
Experiment: P397Y-FAK inhibition MSD platform cellular biomarker assay
Assay type: cell-based
Details: MDA-231-LNA cells, 1 hour compound
Recorded IC50, one value per entry.
readoutType: IC50 (nM)

INSERT INTO assay_data (smilesrecord, targetundertest, readouttype, readoutqualifier, valuemeasured) VALUES
  ('Cc1cnc(Nc2cnn(C3CCNCC3)c2)nc1CCc1ccccc1CC(N)=O', 'P397Y-FAK (Homo sapiens)', 'IC50', '>', 2000),
  ('NC(=O)Cc1ccccc1CCc1nc(Nc2ccc(CNCCO)cc2)ncc1C(F)(F)F', 'P397Y-FAK (Homo sapiens)', 'IC50', '=', 7),
  ('Cc1cnc(Nc2cccnc2)nc1CCc1ccccc1CC(N)=O', 'P397Y-FAK (Homo sapiens)', 'IC50', '>', 2000),
  ('Cc1cc(Nc2ncc(C(F)(F)F)c(CCc3ccccc3CC(N)=O)n2)ccc1C1CCNCC1', 'P397Y-FAK (Homo sapiens)', 'IC50', '=', 16),
  ('NCc1ccc(Nc2ncc(C(F)(F)F)c(CCc3ccccc3CC(N)=O)n2)cc1', 'P397Y-FAK (Homo sapiens)', 'IC50', '=', 62);

----------
Biological target: P397Y-FAK (Homo sapiens, UniProt Q05397)
Construct: endogenous in cells; host or cells: MDA-231-LNA
Sequence (Q05397 2-1052 limits assumed, stated change not applied): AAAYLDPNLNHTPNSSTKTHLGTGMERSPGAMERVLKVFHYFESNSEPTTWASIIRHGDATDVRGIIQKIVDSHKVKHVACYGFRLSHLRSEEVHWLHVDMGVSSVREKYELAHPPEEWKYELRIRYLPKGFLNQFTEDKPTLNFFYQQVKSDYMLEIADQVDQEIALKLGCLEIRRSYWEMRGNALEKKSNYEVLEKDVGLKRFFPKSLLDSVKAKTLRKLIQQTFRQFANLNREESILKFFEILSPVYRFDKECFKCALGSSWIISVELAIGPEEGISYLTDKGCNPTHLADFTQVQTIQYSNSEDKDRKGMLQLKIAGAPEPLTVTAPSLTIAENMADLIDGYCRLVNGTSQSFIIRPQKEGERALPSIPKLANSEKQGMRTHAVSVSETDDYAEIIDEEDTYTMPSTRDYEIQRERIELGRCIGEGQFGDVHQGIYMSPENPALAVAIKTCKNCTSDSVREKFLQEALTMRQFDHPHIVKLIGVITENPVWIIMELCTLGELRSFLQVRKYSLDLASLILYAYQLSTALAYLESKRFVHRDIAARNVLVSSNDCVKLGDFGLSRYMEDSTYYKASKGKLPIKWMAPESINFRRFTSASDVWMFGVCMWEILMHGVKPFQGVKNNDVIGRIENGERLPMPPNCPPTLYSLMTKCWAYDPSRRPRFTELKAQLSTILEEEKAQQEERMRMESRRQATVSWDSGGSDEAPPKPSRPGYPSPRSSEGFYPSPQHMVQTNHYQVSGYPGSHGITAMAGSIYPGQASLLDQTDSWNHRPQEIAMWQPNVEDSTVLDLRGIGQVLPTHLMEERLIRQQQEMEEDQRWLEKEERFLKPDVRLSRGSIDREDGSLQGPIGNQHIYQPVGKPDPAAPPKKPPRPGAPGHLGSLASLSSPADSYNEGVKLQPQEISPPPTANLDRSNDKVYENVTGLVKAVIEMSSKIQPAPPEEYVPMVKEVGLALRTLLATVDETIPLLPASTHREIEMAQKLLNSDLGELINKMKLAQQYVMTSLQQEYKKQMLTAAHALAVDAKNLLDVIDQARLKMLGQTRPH
Experiment: P397Y-FAK inhibition MSD platform cellular biomarker assay
Type: cell-based
Conditions: MDA-231-LNA cells, 1 hour compound
readoutType: IC50 (nM)

INSERT INTO assay_data (compound, targetundertest, readouttype, unit, readoutqualifier, valuemeasured) VALUES
  ('NC(=O)Cc1ccccc1CCc1nc(Nc2ccc(C(=O)N3CCNCC3)cc2)ncc1C(F)(F)F [Compound 6]', 'P397Y-FAK (Homo sapiens, UniProt Q05397)', 'IC50', 'nM', '=', 940),
  ('CC(N)c1ccc(Nc2ncc(C(F)(F)F)c(CCc3ccccc3CC(N)=O)n2)cc1 (stereo not drawn) [Compound 18]', 'P397Y-FAK (Homo sapiens, UniProt Q05397)', 'IC50', 'nM', '=', 25),
  ('Cc1cnc(Nc2ccc(C3CCNCC3)cc2)nc1CCc1ccccc1CC(N)=O [Compound 16]', 'P397Y-FAK (Homo sapiens, UniProt Q05397)', 'IC50', 'nM', '>', 2000),
  ('Cc1cnc(Nc2cnn(C)c2)nc1CCc1ccccc1CC(N)=O [Compound 28]', 'P397Y-FAK (Homo sapiens, UniProt Q05397)', 'IC50', 'nM', '>', 2000),
  ('Cc1cnc(Nc2ccc(C3CCN(C)CC3)nc2)nc1CCc1ccccc1CC(N)=O [Compound 5]', 'P397Y-FAK (Homo sapiens, UniProt Q05397)', 'IC50', 'nM', '>', 2000),
  ('Cc1ccc(CC(N)=O)c(CCc2nc(Nc3ccc(C4CCNCC4)cc3)ncc2C(F)(F)F)c1 [Compound 21]', 'P397Y-FAK (Homo sapiens, UniProt Q05397)', 'IC50', 'nM', '=', 119);
